# Assay Explanation: Drug excretion in Sprague-Dawley rat urine assessed as apixaban level at 30 mg/kg, po by HPLC method
# Assay Context: read-out: Compound recovery
Measure Name: dose excreted (%)
Express the result in % but write the number alone.

INPUT: Look at this molecule and give its reported dose excreted. COc1ccc(-n2nc(C(N)=O)c3c2C(=O)N(c2ccc(N4CCCC[14C]4=O)cc2)CC3)cc1
OUTPUT: 93

Where do the numbers come from? From ChEMBL document CHEMBL3525963.
